These data points were gathered from ChEMBL document CHEMBL3112460.

Molecular target: Voltage-dependent T-type calcium channel subunit alpha-1G (Homo sapiens)
Sequence (O43497 whole entry): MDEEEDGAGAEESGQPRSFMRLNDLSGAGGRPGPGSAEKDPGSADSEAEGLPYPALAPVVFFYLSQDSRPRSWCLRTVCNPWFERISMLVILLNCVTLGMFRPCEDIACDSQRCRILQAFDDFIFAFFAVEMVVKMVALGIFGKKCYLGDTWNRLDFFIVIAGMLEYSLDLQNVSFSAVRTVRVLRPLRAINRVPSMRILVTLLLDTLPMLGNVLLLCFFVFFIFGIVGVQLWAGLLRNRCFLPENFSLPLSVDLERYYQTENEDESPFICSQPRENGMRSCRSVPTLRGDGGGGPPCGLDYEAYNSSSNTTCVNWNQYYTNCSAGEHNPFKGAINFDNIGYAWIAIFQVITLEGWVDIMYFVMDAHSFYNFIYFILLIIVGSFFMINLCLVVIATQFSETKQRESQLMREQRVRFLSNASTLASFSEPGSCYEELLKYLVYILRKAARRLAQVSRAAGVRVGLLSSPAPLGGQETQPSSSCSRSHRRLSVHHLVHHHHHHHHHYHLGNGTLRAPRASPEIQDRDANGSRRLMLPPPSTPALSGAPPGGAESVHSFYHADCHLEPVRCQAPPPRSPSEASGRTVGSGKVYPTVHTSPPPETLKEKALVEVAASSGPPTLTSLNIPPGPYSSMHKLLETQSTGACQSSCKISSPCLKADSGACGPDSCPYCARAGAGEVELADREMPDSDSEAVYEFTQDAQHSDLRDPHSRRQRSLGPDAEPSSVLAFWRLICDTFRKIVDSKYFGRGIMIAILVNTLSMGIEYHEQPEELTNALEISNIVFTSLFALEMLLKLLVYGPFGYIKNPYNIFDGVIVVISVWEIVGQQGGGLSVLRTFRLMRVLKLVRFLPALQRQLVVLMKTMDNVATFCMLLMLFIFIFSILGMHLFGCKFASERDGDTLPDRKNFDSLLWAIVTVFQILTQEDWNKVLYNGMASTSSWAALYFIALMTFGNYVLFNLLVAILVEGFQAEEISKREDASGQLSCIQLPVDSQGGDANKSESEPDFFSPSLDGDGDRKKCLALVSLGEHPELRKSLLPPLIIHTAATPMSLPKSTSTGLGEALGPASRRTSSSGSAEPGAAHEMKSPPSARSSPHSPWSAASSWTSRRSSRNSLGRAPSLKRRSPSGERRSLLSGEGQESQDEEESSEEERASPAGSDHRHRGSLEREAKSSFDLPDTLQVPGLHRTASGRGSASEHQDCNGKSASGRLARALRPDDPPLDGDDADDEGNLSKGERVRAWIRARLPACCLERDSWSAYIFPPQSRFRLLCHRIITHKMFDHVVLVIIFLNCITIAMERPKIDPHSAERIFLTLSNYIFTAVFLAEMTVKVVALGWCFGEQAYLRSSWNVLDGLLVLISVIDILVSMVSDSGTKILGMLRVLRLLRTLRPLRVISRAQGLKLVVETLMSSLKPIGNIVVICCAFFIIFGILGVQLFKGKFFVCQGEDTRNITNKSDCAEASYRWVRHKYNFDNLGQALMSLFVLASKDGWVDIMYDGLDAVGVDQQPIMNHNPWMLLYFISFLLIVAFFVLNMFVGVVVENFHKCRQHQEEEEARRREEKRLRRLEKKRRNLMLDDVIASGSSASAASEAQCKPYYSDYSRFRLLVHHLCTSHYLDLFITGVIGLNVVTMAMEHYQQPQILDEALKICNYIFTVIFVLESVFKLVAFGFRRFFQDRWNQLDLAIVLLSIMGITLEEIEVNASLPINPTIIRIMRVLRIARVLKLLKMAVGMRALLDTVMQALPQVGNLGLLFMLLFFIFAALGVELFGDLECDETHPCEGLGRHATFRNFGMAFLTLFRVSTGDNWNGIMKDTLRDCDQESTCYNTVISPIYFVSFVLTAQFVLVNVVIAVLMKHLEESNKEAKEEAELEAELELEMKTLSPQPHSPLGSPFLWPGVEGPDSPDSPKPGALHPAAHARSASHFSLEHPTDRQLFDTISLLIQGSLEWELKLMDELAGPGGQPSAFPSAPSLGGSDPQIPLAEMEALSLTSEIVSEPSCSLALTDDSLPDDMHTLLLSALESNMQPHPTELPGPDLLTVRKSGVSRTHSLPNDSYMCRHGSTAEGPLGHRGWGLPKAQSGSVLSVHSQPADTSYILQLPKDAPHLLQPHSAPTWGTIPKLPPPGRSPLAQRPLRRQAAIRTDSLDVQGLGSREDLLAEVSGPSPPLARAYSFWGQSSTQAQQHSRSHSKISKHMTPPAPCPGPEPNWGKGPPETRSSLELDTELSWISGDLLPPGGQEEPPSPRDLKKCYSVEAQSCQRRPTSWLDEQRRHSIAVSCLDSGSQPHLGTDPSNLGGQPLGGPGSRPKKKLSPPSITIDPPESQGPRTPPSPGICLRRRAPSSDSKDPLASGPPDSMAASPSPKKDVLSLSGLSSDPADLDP
Test: Inhibition of T-type calcium channel subunit alpha-1G (unknown origin) expressed in HEK293 cells assessed as inactivation of channel current at holding potential of 30 to 100mV by whole-cell patch clamp method
reported.endpoint: IC50 (nM)

COC(=O)C(CCCN1CCC(c2ccccc2OC)CC1)(c1ccc(Br)cc1)C(C)C (stereo unspecified): 2650
COC(=O)C(CCCN1CC=C(c2ccccc2OC)CC1)(c1ccc(Br)cc1)C(C)C (stereo unspecified): 3240

P: COc1ccccc1N1CCN(CCCC(C(=O)O)(c2ccc(Br)cc2)C(C)C)CC1 (stereo unspecified)
Q: CC(C)C(CCCN(C)CCCc1nc2ccccc2[nH]1)(C(=O)O)c1ccc(Br)cc1 (stereo unspecified)
R: COC(=O)C(CCC(=O)N1CCN(c2ccccc2OC)CC1)(c1ccc(Br)cc1)C(C)C (stereo unspecified)
S: COC(=O)C(CCC(=O)N(C)CCCc1nc2ccccc2[nH]1)(c1ccc(Br)cc1)C(C)C (stereo unspecified)
Ask | Order the entries by their reported IC50, beginning at the minimum. Please respond by ranking the labels in the order requested.
Reply | S, R, Q, P
(S: 56 nM, R: 654 nM, Q: 1360 nM, P: 3260 nM)
